B1: Lysozyme C, P61626 (parent)
chain: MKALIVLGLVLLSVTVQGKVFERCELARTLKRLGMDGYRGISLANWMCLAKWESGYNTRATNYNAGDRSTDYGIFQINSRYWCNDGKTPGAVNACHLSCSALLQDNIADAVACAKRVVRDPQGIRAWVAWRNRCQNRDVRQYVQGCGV

Variants of: B1
Settings: Homo sapiens; pH 3; Thermal; DSC; glycine-HCl 0.05 M; reversible: yes; structure 1LZ1; whole UniProt chain shown
# Tm per entry
# value in °C; strip the unit string

Worked examples follow.
1. T70V    66.6
2. T88A    64.7
3. T88V    67.6
4. T58A    66.5
5. T70A    66.9

Lab note: next variant to report on.
Ask | Give recorded Tm. T58V
Reply | 66.3

Value source: FireProtDB (doi:10.1021/bi9910169)
